Reported Kd values for the following binders.
# study.system: T1, mouse CTGF (Abbexa) (mouse, UniProt P29268 26-348, limits assumed)
# T1 construct: also called Murine CTGF; mCTGF
# T1 sequence (looked up): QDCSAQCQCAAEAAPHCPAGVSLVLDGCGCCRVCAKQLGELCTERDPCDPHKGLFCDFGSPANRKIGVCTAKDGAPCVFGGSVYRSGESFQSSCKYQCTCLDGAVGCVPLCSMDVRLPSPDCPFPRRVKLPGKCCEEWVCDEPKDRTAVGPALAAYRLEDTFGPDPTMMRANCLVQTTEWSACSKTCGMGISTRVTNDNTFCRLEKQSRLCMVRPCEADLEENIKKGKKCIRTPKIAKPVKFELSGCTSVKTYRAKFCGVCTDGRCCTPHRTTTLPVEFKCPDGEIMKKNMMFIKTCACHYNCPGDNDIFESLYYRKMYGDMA
# assay.summary: SPR (Biacore)
Please state the figure in nM; there is no need to write the unit.

// returns reported Kd for input lipocalin mutein of SEQ ID NO: 15 (designed binder, also called hNGAL mutein; not shown: C-terminal His-tag) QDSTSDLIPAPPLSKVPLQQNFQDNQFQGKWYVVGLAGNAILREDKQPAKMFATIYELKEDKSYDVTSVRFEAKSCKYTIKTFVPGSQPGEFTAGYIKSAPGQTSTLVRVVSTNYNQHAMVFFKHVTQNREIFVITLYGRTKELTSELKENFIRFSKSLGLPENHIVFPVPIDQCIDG 0.349

New cases:
// returns reported Kd for input lipocalin mutein of SEQ ID NO: 24 (designed binder, also called hNGAL mutein) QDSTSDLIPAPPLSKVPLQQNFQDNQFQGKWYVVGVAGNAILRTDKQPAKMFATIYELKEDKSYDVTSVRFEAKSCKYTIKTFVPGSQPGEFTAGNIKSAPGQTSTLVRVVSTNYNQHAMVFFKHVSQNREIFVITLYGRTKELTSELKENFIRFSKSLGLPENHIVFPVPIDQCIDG 0.034

// returns reported Kd for input lipocalin mutein of SEQ ID NO: 26 (designed binder, also called hNGAL mutein; not shown: C-terminal His-tag) QDSTSDLIPAPPLSKVPLQQNFQDNQFQGKWYVVGLAGNYRLREDKDPSKMGATIYELKEDKSYDVTQVQFDDKKCLYVIETFVPGSQPGEFTLGNIKVYPTLESQLVRVVSTNYNQHAMVFFKKVYQNREVFWITLYGRTKELTSELKENFIRFSKSLGLPENHIVFPVPIDQCIDG 5.89

// returns reported Kd for input lipocalin mutein of SEQ ID NO: 19 (designed binder, also called hNGAL mutein; not shown: C-terminal His-tag) QDSTSDLIPAPPLSKVPLQQNFQDNQFQGKWYVVGLAGNAILREDKQPAKMFATIYELKEDKSYDVTSVRFEAKSCSYTIKTFVPGSQPGEFTAGNIKSAPGQTSTLVRVVSTNYNQHAMVFHKAVSQNRESFVITLYGRTKELTSELKENFIRFSKSLGLPENHIVFPVPIDQCIDG 0.273

// returns reported Kd for input lipocalin mutein of SEQ ID NO: 9 (designed binder, Parent hNGAL mutein; also called hNGAL mutein) QDSTSDLIPAPPLSKVPLQQNFQDNQFHGKWYVVGLAGNKILRIDKQPAKMFATIYELKEDKSYDVTSVRFEARSCSYTIKTFVPGSQPGEFTAGNIKSAPGQTSTLVRVVSTNYNQHAMVFFKHVSQNRETFVITLYGRTKELTSELKENFIRFSKSLGLPENHIVFPVPIDQCIDGSAWSHPQFEK 6.26

// returns reported Kd for input lipocalin mutein of SEQ ID NO: 34 (designed binder, also called hNGAL mutein) QDSTSDLIPAPPLSKVPLQQNFQDNQFQGKWYVVGWAGNVILREDKQPFKMSATIYELKEDKSYDVTEVVFEQKKCHYIIKTFVPGSQPGEFTLGDIKSPPGETSTLVRVVSTNYNQHAMVFFKKVSQNREFFWITLYGRTKELTSELKENFIRFSKSLGLPENHIVFPVPIDQCIDG 11.9

Where do these numbers come from? They come from patent US20240228562A1.
